- Tested on: Staphylococcus aureus
- experimental.protocol: Antimicrobial activity against quinolone-resistant Staphylococcus aureus clinical isolate 3519 after 20 hrs by two-fold serial dilution technique
- Type: functional
- cond: isolate 3519, 20 h
measured.attribute: MIC
Could you kindly put the unit after your number?

What MIC value was documented for this compound, O=C1CSC(=S)N1[C@@H](Cc1ccccc1)c1nnc(-c2cccc(Br)c2)o1 ? 4 µg/mL

Others:
What MIC value was documented for this compound, O=C(O)c1ccc(/C=C2\SC(=S)N([C@@H](Cc3ccccc3)c3nnc(-c4cccc(Br)c4)o3)C2=O)cc1 ? 2 µg/mL

Entry O=C(O)c1ccc(/C=C2\SC(=S)N(Cc3nnc(-c4cccc(Cl)c4)o3)C2=O)cc1 please 16 µg/mL

###

Catalogue of molecules with associated MIC
- Test system: Staphylococcus aureus
- experimental.protocol: Antimicrobial activity against methicillin-resistant Staphylococcus aureus clinical isolate 3167 after 20 hrs by two-fold serial dilution technique
- Format: functional
- cond: isolate 3167, 20 h
The figure you give is taken to be in µg/mL; do not add the unit.

What MIC value was documented for this molecule, O=C(O)c1ccc(/C=C2\SC(=S)N([C@@H](Cc3ccccc3)c3nnc(-c4cccc(Br)c4)o3)C2=O)cc1 ? 1

Entry O=C1CSC(=S)N1Cc1nnc(-c2ccccc2Cl)o1 please 32

Entry O=C(O)c1ccc(/C=C2\SC(=S)N([C@@H](Cc3ccccc3)c3nnc(-c4cccc(Cl)c4)o3)C2=O)cc1 please 2

Entry O=C1CSC(=S)N1Cc1nnc(-c2ccccc2Br)o1 please 16

Entry Cc1cccc(-c2nnc([C@H](Cc3ccccc3)N3C(=O)/C(=C/c4ccc(C(=O)O)cc4)SC3=S)o2)c1 please 2

Others:
What MIC value was documented for this molecule, O=C1CSC(=S)N1[C@@H](Cc1ccccc1)c1nnc(-c2ccccc2)o1 ? 16

Entry O=C1CSC(=S)N1Cc1nnc(-c2ccccc2)o1 please 64

###

- Tested on: Staphylococcus aureus
- experimental.protocol: Antimicrobial activity against Staphylococcus aureus 503 after 20 hrs by two-fold serial dilution technique
- Assay type: functional
- cond: Staphylococcus aureus, 503, 20 h
measured.attribute: MIC

What MIC value was documented for this compound, O=C1CSC(=S)N1[C@@H](Cc1ccccc1)c1nnc(-c2ccccc2)o1 ? > 64 µg/mL

Entry O=C1CSC(=S)N1Cc1nnc(-c2ccccc2F)o1 please 64 µg/mL

Entry COc1c(N2C[C@@H]3CCCN[C@@H]3C2)c(F)cc2c(=O)c(C(=O)O)cn(C3CC3)c12 please 2 µg/mL

Others:
What MIC value was documented for this compound, Cc1ccc(-c2nnc(CN3C(=O)CSC3=S)o2)cc1 ? 64 µg/mL

Entry Cc1cccc(-c2nnc(CN3C(=O)CSC3=S)o2)c1 please 32 µg/mL

Entry O=C(O)c1ccc(/C=C2\SC(=S)N([C@@H](Cc3ccccc3)c3nnc(-c4cccc(Br)c4)o3)C2=O)cc1 please > 64 µg/mL

Entry O=C1CSC(=S)N1Cc1nnc(-c2ccccc2Cl)o1 please 32 µg/mL

Entry O=C1CSC(=S)N1[C@@H](Cc1ccccc1)c1nnc(-c2cccc(Cl)c2)o1 please > 64 µg/mL

Entry O=C1CSC(=S)N1Cc1nnc(-c2cccc(Br)c2)o1 please 32 µg/mL

Entry O=C(O)c1ccc(/C=C2\SC(=S)N([C@@H](Cc3ccccc3)c3nnc(-c4cccc(Cl)c4)o3)C2=O)cc1 please > 64 µg/mL

###

- Test system: Staphylococcus aureus
- experimental.protocol: Antimicrobial activity against quinolone-resistant Staphylococcus aureus clinical isolate 3519 after 20 hrs by two-fold serial dilution technique
- Assay type: functional
- cond: isolate 3519, 20 h
measured.attribute: MIC (µg/mL)
The figure you give is taken to be in µg/mL; do not add the unit.

What MIC value was documented for this compound, O=C1CSC(=S)N1Cc1nnc(-c2ccccc2F)o1 ? 64

Entry Cc1ccc(-c2nnc(CN3C(=O)CSC3=S)o2)cc1 please 64

Entry O=C1CSC(=S)N1Cc1nnc(-c2ccccc2Cl)o1 please 32

Entry O=C1CSC(=S)N1Cc1nnc(-c2ccccc2)o1 please 64

Entry Cc1cccc(-c2nnc(CN3C(=O)/C(=C/c4ccc(C(=O)O)cc4)SC3=S)o2)c1 please 32

Here is the next item to consider.
What MIC value was documented for this compound, O=C1CSC(=S)N1[C@@H](Cc1ccccc1)c1nnc(-c2ccccc2)o1 ? 16

###

Catalogue of compounds with associated MIC
- Test system: Pseudomonas aeruginosa
- experimental.protocol: Antimicrobial activity against Pseudomonas aeruginosa 2742 after 20 hrs by two-fold serial dilution technique
- Type: functional
- cond: Pseudomonas aeruginosa, 2742, 20 h

As a guide, the following entries are already answered.
Notebook entry, Pseudomonas aeruginosa assay: MIC of O=C1CSC(=S)N1[C@@H](Cc1ccccc1)c1nnc(-c2cccc(Br)c2)o1 = ? > 128 µg/mL

Entry O=C1CSC(=S)N1Cc1nnc(-c2cccc(Br)c2)o1 please > 128 µg/mL

Entry O=C(O)c1ccc(/C=C2\SC(=S)N([C@@H](Cc3ccccc3)c3nnc(-c4cccc(Cl)c4)o3)C2=O)cc1 please > 128 µg/mL

Others:
Notebook entry, Pseudomonas aeruginosa assay: MIC of Cc1ccccc1-c1nnc(CN2C(=O)CSC2=S)o1 = ? > 128 µg/mL

Entry Cc1cccc(-c2nnc(CN3C(=O)CSC3=S)o2)c1 please > 128 µg/mL

###

- Tested on: Staphylococcus aureus
- experimental.protocol: Antimicrobial activity against methicillin-resistant Staphylococcus aureus clinical isolate 3167 after 20 hrs by two-fold serial dilution technique
- Format: functional
- cond: isolate 3167, 20 h
measured.attribute: MIC (µg/mL)
The figure you give is taken to be in µg/mL; do not add the unit.

What MIC value was documented for this compound, O=C1CSC(=S)N1Cc1nnc(-c2cccc(Cl)c2)o1 ? 32

Entry Cc1ccccc1-c1nnc(CN2C(=O)CSC2=S)o1 please 32

Entry O=C1CSC(=S)N1Cc1nnc(-c2ccccc2F)o1 please 64

Entry O=C1CSC(=S)N1[C@@H](Cc1ccccc1)c1nnc(-c2cccc(Br)c2)o1 please 2

Here is the next item to consider.
What MIC value was documented for this compound, COc1c(N2CCNC(C)C2)c(F)cc2c(=O)c(C(=O)O)cn(C3CC3)c12 (stereo not given) ? 2

###

- Tested on: Staphylococcus aureus
- experimental.protocol: Antimicrobial activity against methicillin-resistant Staphylococcus aureus clinical isolate 3167 after 20 hrs by two-fold serial dilution technique
- Type: functional
- cond: isolate 3167, 20 h
measured.attribute: MIC (µg/mL)
The figure you give is taken to be in µg/mL; do not add the unit.

As a guide, the following entries are already answered.
What MIC value was documented for this molecule, O=C(O)c1ccc(/C=C2\SC(=S)N(Cc3nnc(-c4cccc(Br)c4)o3)C2=O)cc1 ? 8

Entry CCn1cc(C(=O)O)c(=O)c2cc(F)c(N3CCNCC3)cc21 please 8

Entry O=C1CSC(=S)N1Cc1nnc(-c2ccc(Cl)cc2)o1 please 32

Others:
What MIC value was documented for this molecule, O=C(O)c1ccc(/C=C2\SC(=S)N(Cc3nnc(-c4cccc(Cl)c4)o3)C2=O)cc1 ? 8

Entry O=C1CSC(=S)N1[C@@H](Cc1ccccc1)c1nnc(-c2cccc(Cl)c2)o1 please 4

###

Catalogue of compounds with associated MIC
- Test system: Staphylococcus aureus
- experimental.protocol: Antimicrobial activity against quinolone-resistant Staphylococcus aureus clinical isolate 3519 after 20 hrs by two-fold serial dilution technique
- Type: functional
- cond: isolate 3519, 20 h
The figure you give is taken to be in µg/mL; do not add the unit.

As a guide, the following entries are already answered.
What MIC value was documented for this compound, Cc1cccc(-c2nnc([C@H](Cc3ccccc3)N3C(=O)CSC3=S)o2)c1 ? 8

Entry O=C1CSC(=S)N1[C@@H](Cc1ccccc1)c1nnc(-c2cccc(Cl)c2)o1 please 8

Entry O=C(O)c1ccc(/C=C2\SC(=S)N(Cc3nnc(-c4cccc(Br)c4)o3)C2=O)cc1 please 16

Here is the next item to consider.
What MIC value was documented for this compound, O=C1CSC(=S)N1Cc1nnc(-c2ccc(Br)cc2)o1 ? 64

Reference source: ChEMBL document CHEMBL3112479
